# measurement.target: recombinant DYRK1A kinase (Homo sapiens, UniProt Q13627)
# measurement.description: DYRK1A kinase assay (Ser/Thr 18 peptide Z-lyte FRET)
# details: DYRK1A 0.25 μg/mL, ATP 15 μM, Ser/Thr peptide 18 4 μM, one hour at room temperature, 11-point dose-response from 10 μM
property.label: IC50 (nM)
Only the number, expressed in nM, is required.

Example molecules with recorded IC50:
{"molecule": "CC(C)Nc1nc(N[C@H]2CCN(C3COC3)C[C@H]2F)nn2ccc(-c3ccc4nnn(CC(F)F)c4n3)c12 [Compound 411]", "IC50 (nM)": 9.7}
{"molecule": "CNc1nc(N[C@@H]2CCN(C)CC2(F)F)nn2ccc(-c3ccc4nnn(CCF)c4n3)c12 [Compound 237]", "IC50 (nM)": 0.7}

What measured IC50 is associated with CNc1nc(N[C@H]2CCN(C3COC3)C[C@H]2F)nn2ccc(-c3ccc4nc(C)n(CCF)c4n3)c12 [Compound 157] on recombinant DYRK1A kinase (Homo sapiens, UniProt Q13627)? 15.8

Identify the measured IC50 of CNc1nc(N[C@@H]2CCN(C3COC3)CC2(F)F)nn2ccc(-c3ccc4nc(C)n(CCF)c4n3)c12 [Compound 160] for recombinant DYRK1A kinase (Homo sapiens, UniProt Q13627). 2.2

// map COCCN1CC[C@H](Nc2nc(N)c3c(-c4ccc5nnn(CC(F)F)c5n4)ccn3n2)[C@H](F)C1 [Compound 256] to recorded IC50 (system: recombinant DYRK1A kinase (Homo sapiens, UniProt Q13627)) 3.5

Checklist item: IC50 tested on recombinant DYRK1A kinase (Homo sapiens, UniProt Q13627), entry CNc1nc(N[C@H]2CCN(C)C[C@H]2F)nn2ccc(-c3ccc4nnn(CC(F)F)c4n3)c12 [Compound 273] , value? 2.7

For the record CNc1nc(NC2CCC(F)(F)CC2)nn2ccc(-c3ccc4nnn(CCF)c4n3)c12 [Compound 233] , what value of IC50 is listed for recombinant DYRK1A kinase (Homo sapiens, UniProt Q13627)? 8.1

State its IC50 on recombinant DYRK1A kinase (Homo sapiens, UniProt Q13627): CNc1nc(N[C@H]2CCN(C(C)=O)C[C@H]2F)nn2cc(F)c(-c3ccc4nnn(CCF)c4n3)c12 [Compound 249] 1.9

Please state recorded IC50 (tested on recombinant DYRK1A kinase (Homo sapiens, UniProt Q13627)) of CC(=O)N1CC[C@H](Nc2nc(N)c3c(-c4ccc5ncn(CC(F)(F)F)c5n4)ccn3n2)[C@H](F)C1 [Compound 127] 1.5

What measured IC50 is associated with CNc1nc(NC2CCN(C3COC3)CC2)nn2ccc(-c3ccc4nnn(CC(F)F)c4n3)c12 [Compound 271] on recombinant DYRK1A kinase (Homo sapiens, UniProt Q13627)? 2.9

I'm curious: which IC50 was measured for Nc1nc(N[C@@H]2CCN(C3COC3)CC2(F)F)nn2cc(F)c(-c3ccc4nnn(CC(F)F)c4n3)c12 [Compound 264] tested on recombinant DYRK1A kinase (Homo sapiens, UniProt Q13627)? 1.2

Lookup: IC50 / recombinant DYRK1A kinase (Homo sapiens, UniProt Q13627) / CNc1nc(N[C@@H]2CCN(C3COC3)CC2(F)F)nn2ccc(-c3ccc4nnn(CCF)c4n3)c12 [Compound 239] 0.6

----------
The reader will find reported IC50 values listed item by item below.
# measurement.target: recombinant DYRK1A kinase (Homo sapiens, UniProt Q13627)
# measurement.description: DYRK1A kinase assay (Ser/Thr 18 peptide Z-lyte FRET)
# details: DYRK1A 0.25 μg/mL, ATP 15 μM, Ser/Thr peptide 18 4 μM, one hour at room temperature, 11-point dose-response from 10 μM
Unit nM implied. Number only.

Record CNc1nc(N[C@H]2CCN(C(=O)CO)C[C@H]2F)nn2ccc(-c3ccc4nc(C)n(CC(F)F)c4n3)c12 : what is its IC50 with recombinant DYRK1A kinase (Homo sapiens, UniProt Q13627)? 2

Under recombinant DYRK1A kinase (Homo sapiens, UniProt Q13627): IC50 value of CCNc1nc(N[C@H]2CCN(C3COC3)C[C@H]2F)nn2ccc(-c3ccc4nnn(CC(F)F)c4n3)c12 ? 4.2

Kindly state the measured IC50 obtained for CNc1nc(N[C@@H]2CCN(C3COC3)CC2(F)F)nn2cc(F)c(-c3ccc4nc(C)n(CCF)c4n3)c12 with recombinant DYRK1A kinase (Homo sapiens, UniProt Q13627). 1.4

----------
# measurement.target: recombinant DYRK1A kinase (Homo sapiens)
# measurement.description: DYRK1A kinase assay (Ser/Thr 18 peptide Z-lyte FRET)
# details: DYRK1A 0.25 μg/mL, ATP 15 μM, Ser/Thr peptide 18 4 μM, one hour at room temperature, 11-point dose-response from 10 μM
property.label: log10(IC50) (log10 of the value in nM)
Note: values are log10 of IC50 expressed in nM.

These solved cases illustrate the format of a correct answer.
{"smi": "COCCN1CC[C@H](Nc2nc(N)c3c(-c4ccc5ncn(CC(F)F)c5n4)ccn3n2)[C@H](F)C1", "property.label": "log10(IC50)", "measurement": -0.10}
{"smi": "CCn1nnc2ccc(-c3c(F)cn4nc(N[C@@H]5CCN(C)CC5(F)F)nc(NC)c34)nc21", "property.label": "log10(IC50)", "measurement": 0.36}
{"smi": "Cc1nc2ccc(-c3c(F)cn4nc(N[C@@H]5CCN(C6COC6)CC5(F)F)nc(N)c34)nc2n1CCF", "property.label": "log10(IC50)", "measurement": -0.10}
{"smi": "Nc1nc(N[C@@H]2CCN(C3COC3)C[C@@H]2F)nn2ccc(-c3ccc4ncn(CC(F)(F)F)c4n3)c12", "property.label": "log10(IC50)", "measurement": 0.15}
{"smi": "CNc1nc(N[C@@H]2CCN(C(C)=O)CC2(F)F)nn2ccc(-c3ccc4nccn4n3)c12", "property.label": "log10(IC50)", "measurement": 0.48}

Requested field: log10(IC50). Item: Nc1nc(N[C@H]2CCN(C3COC3)C[C@H]2F)nn2cc(F)c(-c3ccc4nccn4n3)c12 0.49

Given the molecule CC(=O)N1CC[C@H](Nc2nc(N)c3c(-c4ccc5ncn(CCF)c5n4)ccn3n2)[C@H](F)C1 , what is its reported log10(IC50)? 0.00

Given Nc1nc(N[C@@H]2CCN(C3COC3)CC2(F)F)nn2ccc(-c3ccc4ncn(CCF)c4n3)c12 , state its recorded log10(IC50). 0.15

# lookup: log10(IC50) of FC(F)Cn1nnc2ccc(-c3ccn4nc(N[C@H]5CCN(C6COC6)C[C@H]5F)nc(NC5CC5)c34)nc21 0.91

I have this molecule here, CNc1nc(N[C@@H]2CCN(C(C)=O)CC2(F)F)nn2cc(F)c(-c3ccc4nnn(CC(F)F)c4n3)c12 , and I need its recorded log10(IC50). 0.28

What log10(IC50) value was documented for this molecule, Cc1nc2ccc(-c3c(F)cn4nc(N[C@H]5CCN(C6COC6)C[C@H]5F)nc(N)c34)nc2n1CCF ? 0.23

Give the measured log10(IC50) of CNc1nc(N[C@H]2CCN(C3COC3)C[C@H]2F)nn2cc(F)c(-c3ccc4nnn(CCF)c4n3)c12 . -0.15

Reported log10(IC50), molecule CNc1nc(N[C@@H]2CCN(C(C)=O)CC2(F)F)nn2cc(F)c(-c3ccc4nc(C)n(CCF)c4n3)c12 : ____ 0.46

So what's the measured log10(IC50) for this one? CNc1nc(N[C@@H]2CCN(C)CC2(F)F)nn2cc(F)c(-c3ccc4nccn4n3)c12 0.60

Consider the molecule CC(=O)N1CC[C@@H](Nc2nc(N)c3c(-c4ccc5nccn5n4)c(F)cn3n2)C(F)(F)C1 and give its measured log10(IC50). 0.30

----------
# measurement.target: recombinant DYRK1A kinase (Homo sapiens, UniProt Q13627)
# measurement.description: DYRK1A kinase assay (Ser/Thr 18 peptide Z-lyte FRET)
# details: DYRK1A 0.25 μg/mL, ATP 15 μM, Ser/Thr peptide 18 4 μM, one hour at room temperature, 11-point dose-response from 10 μM
Listed here: items and their measured pIC50.
pIC50 is a log-scale quantity: -log10 of the concentration expressed in molar.

{"smi": "Cc1nc2ccc(-c3c(F)cn4nc(N[C@@H]5CCN(C)CC5(F)F)nc(N)c34)nc2n1CCF", "pIC50": 9.10}
{"smi": "CNc1nc(N[C@H]2CC[C@](C)(O)CC2)nn2cc(F)c(-c3ccc4nnn(CCF)c4n3)c12", "pIC50": 8.70}
{"smi": "CNc1nc(N[C@H]2CCN(C3COC3)C[C@H]2F)nn2cc(F)c(-c3ccc4nc(C)n(CCF)c4n3)c12", "pIC50": 8.74}

Pending molecule:
Record CNc1nc(NC2CCN(CC(F)F)CC2)nn2ccc(-c3ccc4nnn(CC(F)F)c4n3)c12 : what is its pIC50 with recombinant DYRK1A kinase (Homo sapiens, UniProt Q13627)? 8.77
